Values were extracted from patent US20250134907A1.

biological target: RXFP2 (Homo sapiens); construct: expressed in transfected cells; experiment: HTRF cAMP assay in HEK293T cells stably expressing RXFP2 (HEK-RXFP2); type: cell-based; settings: condition (c): 7,500 cells/well, IBMX omitted; normalized to 100 nM INSL3 cAMP response
Sequence (Q8WXD0 whole entry): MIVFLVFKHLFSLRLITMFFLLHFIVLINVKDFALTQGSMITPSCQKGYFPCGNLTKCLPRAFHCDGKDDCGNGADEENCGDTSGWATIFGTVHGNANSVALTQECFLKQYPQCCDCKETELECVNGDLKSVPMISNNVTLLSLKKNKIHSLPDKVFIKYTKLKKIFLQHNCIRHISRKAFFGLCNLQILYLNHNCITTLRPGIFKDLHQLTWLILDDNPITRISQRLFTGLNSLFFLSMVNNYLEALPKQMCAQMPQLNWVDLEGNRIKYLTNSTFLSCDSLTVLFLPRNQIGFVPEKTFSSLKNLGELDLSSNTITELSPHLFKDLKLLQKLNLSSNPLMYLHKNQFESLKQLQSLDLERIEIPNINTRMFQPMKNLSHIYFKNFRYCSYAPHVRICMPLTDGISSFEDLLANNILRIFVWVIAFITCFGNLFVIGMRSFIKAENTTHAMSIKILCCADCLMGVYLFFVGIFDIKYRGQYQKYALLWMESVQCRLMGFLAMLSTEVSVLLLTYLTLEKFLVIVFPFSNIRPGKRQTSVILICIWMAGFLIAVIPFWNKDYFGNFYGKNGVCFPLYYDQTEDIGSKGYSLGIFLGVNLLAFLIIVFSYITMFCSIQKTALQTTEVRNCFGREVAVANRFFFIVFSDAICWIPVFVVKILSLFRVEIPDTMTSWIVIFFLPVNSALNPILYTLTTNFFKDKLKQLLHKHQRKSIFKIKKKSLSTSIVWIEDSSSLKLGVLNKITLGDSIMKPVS
measurement.kind: % EFF vs. 100 nM INSL3 (c) (%)

Prompt line: # % EFF vs. 100 nM INSL3 (c) lookup, item COc1cc(OC(F)(F)F)ccc1OCC(=O)N1CCN2C(=O)c3cc(-c4cc(C(F)(F)F)cc(C(F)(F)F)c4)ccc3NC(=O)[C@@H]2C1
Response line: 63.16

Prompt line: Dear colleague, I am looking for the recorded % EFF vs. 100 nM INSL3 (c) of the following molecule: O=C1Nc2ccc(-c3cc(C(F)(F)F)cc(C(F)(F)F)c3)cc2CN2CCN(C(=O)COc3ccc(OC(F)(F)F)cc3I)C[C@@H]12
Response line: 49.35

Prompt line: I'd like to know its % EFF vs. 100 nM INSL3 (c). The molecule in question is O=C1Nc2cnc(-c3cc(C(F)(F)F)cc(C(F)(F)F)c3)cc2C(=O)N2CCN(C(=O)COc3ccc(OC(F)(F)F)cc3I)C[C@@H]12 (single isomer, unassigned)
Response line: 109.23

1: O=C1Nc2ccc(-c3cc(C4CC4)cc(C(F)(F)F)c3)cc2C(=O)N2CCN(C(=O)COc3ccc(OC(F)(F)F)cc3Br)C[C@@H]12
2: O=C1Nc2ccc(-c3cccc(C(F)F)c3)cc2C(=O)N2CCN(C(=O)COc3ccc(OC(F)(F)F)cc3Cl)C[C@@H]12
Prompt line: Smaller % EFF vs. 100 nM INSL3 (c) value? Options are 1 and 2 Record your answer as the label of the chosen record.
Response line: 2

---

test: Pharmacokinetic study in female mice (plasma, liver, bone); type: in vivo, female C57/BL6 mice; details: female, C57/BL6, mouse, plasma, po; Table 10; POA single 10 mg/kg; read-out: Bioavailability-F
measurement.kind: bioavailability (%)
All answers are understood in %, so give the number only.

Prompt line: // lookup bioavailability for O=C1Nc2ccc(-c3cc(C(F)(F)F)cc(C(F)(F)F)c3)cc2C(=O)N2CCN(C(=O)COc3ccc(OC(F)(F)F)cc3I)C[C@@H]12 [Example 187]
Response line: 24.8

---

test: Pharmacokinetic study in female mice (plasma, liver, bone); assay type: in vivo, female C57/BL6 mice; conditions: female, C57/BL6, mouse, plasma; Table 10; IV 3 mg/kg; read-out: Mean residence time-MRTlast
measurement.kind: MRT last (h)
Numeric only. Scale: h

Prompt line: Reported MRT last, compound O=C1Nc2ccc(-c3cc(C(F)(F)F)cc(C(F)(F)F)c3)cc2C(=O)N2CCN(C(=O)COc3ccc(OC(F)(F)F)cc3I)C[C@@H]12 : ____
Response line: 3.47

---

test: Pharmacokinetic study in female mice (plasma, liver, bone); format: in vivo, female C57/BL6 mice; details: female, C57/BL6, mouse, liver, po, 10 mg/kg; PO 10 mg/kg, one administration
measurement.kind: Cmax (ng/g)
Expressed in ng/g, but write only the number.

Prompt line: Query (compound): O=C1Nc2ccc(-c3cc(C(F)(F)F)cc(C(F)(F)F)c3)cc2C(=O)N2CCN(C(=O)COc3ccc(OC(F)(F)F)cc3I)C[C@@H]12 ; field requested: Cmax
Response line: 3210
